experiment: Biodistribution in HEK-uPAR xenografted nude mice; conditions: CD1 nude, mouse, pancreas, 0.5 nmol/mouse, total radioactivity, Pancreas uptake, 1 h p.i.; decay-corrected
readout type: tissue uptake at 1 h

compound: CC(C)C[C@H](NC(=O)[C@H](Cc1ccc(O)cc1)NC(=O)[C@@H](CCCNC(=N)N)NC(=O)[C@@H](CO)NC(=O)[C@H](Cc1ccccc1)NC(=O)[C@H](CC1CCCCC1)NC(=O)[C@H](CC(=O)O)NC(=O)CN1CCN(CC(=O)O)CCN(CC(=O)O)CCN(CC(=O)O)CC1)C(=O)N[C@@H](Cc1c[nH]c2ccccc12)C(=O)N[C@@H](CO)C(N)=O [[^177Lu]Lu-DOTA-AE105, metal not drawn]
readout type: tissue uptake at 1 h
observed measurement: 0.26 %ID/g
